The entries below come with measured self-cleavage values attached.
B1: CPEB3 Ribozyme (parent)
chain: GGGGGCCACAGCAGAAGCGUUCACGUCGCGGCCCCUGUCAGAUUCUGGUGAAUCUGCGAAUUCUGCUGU

variants of: B1; assay: self-cleavage, relative activity (ratio to wild type); higher = more cleavage; co-transcriptional
Reply: number alone, nothing else.

Here are 3 variants together with their reported answers.
- Mutation Spec: "C7A G50C"
  Recorded Metric: "self-cleavage"
  Recorded Number: 0.545
- Mutation Spec: "C29U C32A"
  Recorded Metric: "self-cleavage"
  Recorded Number: 0.295
- Mutation Spec: "G50C"
  Recorded Metric: "self-cleavage"
  Recorded Number: 0.996

Inquiry: Which measured self-cleavage value corresponds to G11C C54A ?
Reply text: 0.252

Inquiry: Which measured self-cleavage value corresponds to G5C A16C ?
Reply text: 0.0946

Inquiry: Which measured self-cleavage value corresponds to G17C U53C ?
Reply text: 0.134
